Origin of the recorded values: patent US10988477B2

Target: GCN2 kinase (Homo sapiens)
Sequence (Q9P2K8 whole entry): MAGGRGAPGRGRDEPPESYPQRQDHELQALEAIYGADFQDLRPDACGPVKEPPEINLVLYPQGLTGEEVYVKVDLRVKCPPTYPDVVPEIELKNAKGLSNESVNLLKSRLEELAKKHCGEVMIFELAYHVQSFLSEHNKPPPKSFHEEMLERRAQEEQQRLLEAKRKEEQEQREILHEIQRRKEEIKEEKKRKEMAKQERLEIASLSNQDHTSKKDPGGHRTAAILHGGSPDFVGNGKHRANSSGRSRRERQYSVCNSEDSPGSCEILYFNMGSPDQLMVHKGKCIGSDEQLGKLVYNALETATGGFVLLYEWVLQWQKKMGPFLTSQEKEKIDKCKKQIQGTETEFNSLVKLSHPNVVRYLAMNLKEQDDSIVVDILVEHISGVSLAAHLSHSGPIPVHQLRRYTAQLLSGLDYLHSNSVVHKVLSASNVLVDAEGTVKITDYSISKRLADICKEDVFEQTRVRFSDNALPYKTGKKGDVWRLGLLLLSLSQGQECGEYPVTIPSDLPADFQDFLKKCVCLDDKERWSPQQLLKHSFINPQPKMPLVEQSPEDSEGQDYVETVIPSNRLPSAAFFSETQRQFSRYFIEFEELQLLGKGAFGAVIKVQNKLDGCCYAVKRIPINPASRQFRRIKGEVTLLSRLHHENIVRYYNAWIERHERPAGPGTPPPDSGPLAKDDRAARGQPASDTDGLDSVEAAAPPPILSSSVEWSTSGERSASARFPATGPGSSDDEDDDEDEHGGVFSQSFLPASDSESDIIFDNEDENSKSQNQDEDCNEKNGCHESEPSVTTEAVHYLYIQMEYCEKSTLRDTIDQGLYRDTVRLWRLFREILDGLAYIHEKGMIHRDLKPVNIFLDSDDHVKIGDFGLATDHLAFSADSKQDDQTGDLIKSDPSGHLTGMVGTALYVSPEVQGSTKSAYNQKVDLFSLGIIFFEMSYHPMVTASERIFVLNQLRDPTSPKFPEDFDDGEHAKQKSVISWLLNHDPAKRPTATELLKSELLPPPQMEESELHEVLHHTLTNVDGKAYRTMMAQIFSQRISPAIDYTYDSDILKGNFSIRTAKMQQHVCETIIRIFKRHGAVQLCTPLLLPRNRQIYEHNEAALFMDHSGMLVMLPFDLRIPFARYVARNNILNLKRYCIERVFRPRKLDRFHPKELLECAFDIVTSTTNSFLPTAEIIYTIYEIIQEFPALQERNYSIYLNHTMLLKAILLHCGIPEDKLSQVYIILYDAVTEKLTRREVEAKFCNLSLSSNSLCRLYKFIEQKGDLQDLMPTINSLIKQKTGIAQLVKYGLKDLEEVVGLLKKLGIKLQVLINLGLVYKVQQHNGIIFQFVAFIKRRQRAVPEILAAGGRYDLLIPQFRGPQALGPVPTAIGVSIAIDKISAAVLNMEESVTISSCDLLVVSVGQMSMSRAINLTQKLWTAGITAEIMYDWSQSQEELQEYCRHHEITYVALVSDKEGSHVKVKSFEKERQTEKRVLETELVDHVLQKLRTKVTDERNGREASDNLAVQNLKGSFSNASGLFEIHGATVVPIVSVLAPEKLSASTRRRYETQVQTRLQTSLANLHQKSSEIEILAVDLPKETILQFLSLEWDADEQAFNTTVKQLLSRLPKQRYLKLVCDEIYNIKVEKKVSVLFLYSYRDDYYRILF
Assay: GCN2 enzyme inhibition assay (Transcreener ADP2 fluorescence polarization)
Type: biochemical
Conditions: Enzyme activity for compounds of Formula IV; Ki(app), 280 μM ATP, 25° C.
property: Ki

compound="FC(F)(F)c1cn2c(-c3nccc(N4CCCC(c5cnco5)C4)n3)cnc2cn1 (centres unmarked)" property=Ki measurement="10 to 100 nM"
compound=CC(=O)N1CCN(c2ccnc(-c3cnc4cnc(C#N)cn34)n2)CC1 property=Ki measurement="100 to 1000 nM"
compound=CCn1cc(-c2ccnc(-c3cnc4cnc(C(F)F)cn34)n2)cn1 property=Ki measurement="100 to 1000 nM"
compound="FC(F)(F)c1cn2c(-c3nccc(N4CCNC(c5cn[nH]c5)C4)n3)cnc2cn1 (single isomer, unassigned) [IV-232]" property=Ki measurement="10 to 100 nM"
compound="OCCCC1CCN(c2ccnc(-c3cnc4cnc(C(F)(F)F)cn34)n2)C1 (centres unmarked)" property=Ki measurement="10 to 100 nM"
compound=CC(=O)N1CCN(c2cccc(-c3cnc4cnc(C(=O)N(C)C)cn34)n2)CC1 property=Ki measurement="100 to 1000 nM"
compound="N#CC1CN(c2ccnc(-c3cnc4cnc(C(N)=O)cn34)n2)CCC1=O (centres unmarked)" property=Ki measurement="10 to 100 nM"
compound=FC(F)(F)c1cn2c(-c3nccc(N4CCC[C@@H](c5c[nH]cn5)C4)n3)cnc2cn1 property=Ki measurement="< 10 nM"
compound="CNS(=O)(=O)C1CCCN(c2ccnc(-c3cnc4cnc(C(F)F)cn34)n2)C1 (centres unmarked)" property=Ki measurement="100 to 1000 nM"
compound="CC1CN(c2ccnc(-c3cnc4cnc(C(F)(F)F)cn34)n2)C(C)C(c2c[nH]c(C(F)(F)F)n2)N1 (centres unmarked) [IV-666]" property=Ki measurement="10 to 100 nM"
compound=O=C(N[C@H]1CCCN(c2ccnc(-c3cnc4cnc(C(F)(F)F)cn34)n2)C1)c1cn[nH]c1 property=Ki measurement="> 1000 nM"
compound="CC(C)C1CN(c2ccnc(-c3cnc4cnc(C(F)(F)F)cn34)n2)C(C)C(c2cn[nH]c2)N1 (centres unmarked)" property=Ki measurement="10 to 100 nM"
compound="CC1C(c2cn[nH]c2)OCCN1c1nccc(-c2cnc3cnc(C(F)(F)F)cn23)n1 (centres unmarked) [IV-417]" property=Ki measurement="< 10 nM"
compound="CP(C)(=O)C1CC(c2cn[nH]c2)CN(c2ccnc(-c3cnc4cnc(C(F)(F)F)cn34)n2)C1 (centres unmarked) [IV-591]" property=Ki measurement="100 to 1000 nM"
compound=CN1CCN(c2ccnc(-c3cnc4cnc(C(F)(F)F)cn34)n2)CC1 property=Ki measurement="100 to 1000 nM"
compound="O=C1NCC2(CCCN(c3ccnc(-c4cnc5cnc(C(F)F)cn45)n3)CC2)O1 (centres unmarked)" property=Ki measurement="100 to 1000 nM"
compound=OC1CCN(c2ccnc(-c3cnc4cnc(C(F)(F)F)cn34)n2)CC1 property=Ki measurement="100 to 1000 nM"
